test: Inhibition of yeast expressing Saponaria officinalis saporin L3 A14C mutant-mediated suppression of luciferase mRNA translation in rabbit reticulocyte extract preincubated with protein for 10 mins followed by addition of rabbit reticulocyte translation system for 90 mins by luciferase assay
MEASUREMENT TYPE: pIC50
Keep it numeric: pIC50 is minus log10 of the concentration in mol/L.

Given the entry `CO[C@@H]1[C@H](OP(=O)(O)OCCCO)[C@@H](COP(=O)(O)O[C@H]2CN(Cc3c[nH]c4c(N)ncnc34)C[C@@H]2COP(=O)(O)OCCCO)O[C@H]1n1cnc2c(=O)[nH]c(N)nc21` , report its measured pIC50.
7.89

====

assay: Competitive inhibition of Saponaria officinalis saporin L3 expressed in yeast using yeast tRNA as substrate
MEASUREMENT TYPE: pKi
Keep it numeric: pKi is minus log10 of the concentration in mol/L.

Given the entry `CO[C@@H]1[C@H](OP(=O)(O)OCCCO)[C@@H](COP(=O)(O)O[C@H]2CN(Cc3c[nH]c4c(N)ncnc34)C[C@@H]2COP(=O)(O)OCCCO)O[C@H]1n1cnc2c(=O)[nH]c(N)nc21` , report its measured pKi.
8.00

====

assay: Competitive inhibition of Saponaria officinalis saporin L1 using RNA A10 as substrate preincubated for 10 mins followed substrate addition by continuous luciferase assay
MEASUREMENT TYPE: pKi
Keep it numeric: pKi is minus log10 of the concentration in mol/L.

Given the entry CO[C@@H]1[C@H](OP(=O)(O)OCCCO)[C@@H](COP(=O)(O)OCC(COP(=O)(O)OCCCO)NCc2c[nH]c3c(N)ncnc23)O[C@H]1n1cnc2c(=O)[nH]c(N)nc21 (stereo partly specified) , report its measured pKi.
7.36

====

assay: Competitive inhibition of Saponaria officinalis saporin L3 A14C mutant expressed in yeast using rabbit rRNA as substrate
MEASUREMENT TYPE: Ki (nM)
State the answer as a number, implicitly in nM.

Given the entry `CO[C@@H]1[C@H](OP(=O)(O)OCCCO)[C@@H](COP(=O)(O)O[C@H]2CN(Cc3c[nH]c4c(N)ncnc34)C[C@@H]2COP(=O)(O)OCCCO)O[C@H]1n1cnc2c(=O)[nH]c(N)nc21` , report its measured Ki.
5.4

====

test: Competitive inhibition of Saponaria officinalis saporin L3 expressed in yeast using RNA A10 as substrate preincubated for 10 mins followed substrate addition by luciferase assay
# pKi listing for each entry below
Keep it numeric: pKi is minus log10 of the concentration in mol/L.

Some solved entries appear below for comparison.
[
  {
    "COMPOUND": "CO[C@@H]1[C@H](OP(=O)(O)OCCCO)[C@@H](COP(=O)(O)O[C@H]2CN(Cc3c[nH]c4c(N)ncnc34)C[C@@H]2COP(=O)(O)OCCCO)O[C@H]1n1cnc2c(=O)[nH]c(N)nc21",
    "pKi": 8.48
  },
  {
    "COMPOUND": "CO[C@@H]1[C@H](OP(=O)(O)OC[C@H]2O[C@@H](n3cnc4c(=O)[nH]c(N)nc43)[C@H](OC)[C@@H]2OP(=O)(O)OC[C@H]2CN(Cc3c[nH]c4c(N)ncnc34)C[C@@H]2OP(=O)(O)OCCCO)[C@@H](CO)O[C@H]1n1cnc2c(=O)[nH]c(N)nc21",
    "pKi": 6.67
  }
]

Given the entry `CO[C@@H]1[C@H](OP(=O)(O)OCCCO)[C@@H](COP(=O)(O)O[C@H]2CN(Cc3c[nH]c4c(N)ncnc34)C[C@@H]2CO)O[C@H]1n1cnc2c(=O)[nH]c(N)nc21` , report its measured pKi.
4.97

Given the entry `CO[C@@H]1[C@H](OP(=O)(O)OCCCO)[C@@H](COP(=O)(O)O[C@H]2CN(CCc3c[nH]c4c(N)ncnc34)C[C@@H]2COP(=O)(O)OCCCO)O[C@H]1n1cnc2c(=O)[nH]c(N)nc21` , report its measured pKi.
7.91

Given the entry `CO[C@@H]1[C@H](OP(=O)(O)OC[C@H]2CN(Cc3c[nH]c4c(N)ncnc34)C[C@@H]2OP(=O)(O)OC[C@H]2O[C@@H](n3cnc4c(=O)[nH]c(N)nc43)[C@H](OC)[C@@H]2OP(=O)(O)OCCCO)[C@@H](CO)O[C@H]1n1cnc2c(=O)[nH]c(N)nc21` , report its measured pKi.
7.98

Given the entry `CO[C@@H]1[C@H](O)[C@@H](COP(=O)(O)O[C@H]2CN(Cc3c[nH]c4c(N)ncnc34)C[C@@H]2CO)O[C@H]1n1cnc2c(=O)[nH]c(N)nc21` , report its measured pKi.
4.67

====

test: Competitive inhibition of Saponaria officinalis saporin L3 expressed in yeast using RNA A10 as substrate preincubated for 10 mins followed substrate addition by luciferase assay
MEASUREMENT TYPE: Ki

[
  {
    "MOLECULE": "CO[C@@H]1[C@H](OP(=O)(O)OC[C@H]2CN(Cc3c[nH]c4c(N)ncnc34)C[C@@H]2OP(=O)(O)OC[C@H]2O[C@@H](n3cnc4c(=O)[nH]c(N)nc43)[C@H](OC)[C@@H]2OP(=O)(O)OCCCO)[C@@H](COP(=O)(O)OCCCO)O[C@H]1n1cnc2c(=O)[nH]c(N)nc21",
    "RESULT": "7.4 nM"
  }
]

Let us examine a further case.
Given the entry CO[C@@H]1[C@H](O)[C@@H](COP(=O)(O)O[C@H]2CN(Cc3c[nH]c4c(N)ncnc34)C[C@@H]2COP(=O)(O)OC2[C@@H](OC)[C@H](n3cnc4c(=O)[nH]c(N)nc43)O[C@@H]2CO)O[C@H]1n1cnc2c(=O)[nH]c(N)nc21 (some centres not stated) , report its measured Ki.
33 nM

====

assay: Competitive inhibition of Saponaria officinalis saporin L3 A14C mutant expressed in yeast using yeast tRNA as substrate
MEASUREMENT TYPE: pKi
Keep it numeric: pKi is minus log10 of the concentration in mol/L.

Given the entry `CO[C@@H]1[C@H](OP(=O)(O)OCCCO)[C@@H](COP(=O)(O)O[C@H]2CN(Cc3c[nH]c4c(N)ncnc34)C[C@@H]2COP(=O)(O)OCCCO)O[C@H]1n1cnc2c(=O)[nH]c(N)nc21` , report its measured pKi.
8.08

====

# Ki listing for each entry below
experiment: Competitive inhibition of Saponaria officinalis saporin L3 expressed in yeast using RNA A10 as substrate preincubated for 10 mins followed substrate addition by luciferase assay
State the answer as a number, implicitly in nM.

Some solved entries appear below for comparison.
[
  {
    "MOLECULE": "CO[C@@H]1[C@H](OP(=O)(O)OC[C@H]2CN(Cc3c[nH]c4c(N)ncnc34)C[C@@H]2OP(=O)(O)OCCCO)[C@@H](COP(=O)(O)OCCCO)O[C@H]1n1cnc2c(=O)[nH]c(N)nc21",
    "Ki [nM]": 188
  },
  {
    "MOLECULE": "CO[C@@H]1[C@H](O)[C@@H](COP(=O)(O)O[C@H]2[C@@H](OC)[C@H](n3cnc4c(=O)[nH]c(N)nc43)O[C@@H]2COP(=O)(O)O[C@H]2CN(Cc3c[nH]c4c(N)ncnc34)C[C@@H]2COP(=O)(O)OC2[C@@H](OC)[C@H](n3cnc4c(=O)[nH]c(N)nc43)O[C@@H]2CO)O[C@H]1n1cnc2c(N)ncnc21 (some centres undefined)",
    "Ki [nM]": 6.1
  },
  {
    "MOLECULE": "CO[C@@H]1[C@H](O)[C@@H](COP(=O)(O)O[C@H]2CN(Cc3c[nH]c4c(N)ncnc34)C[C@@H]2COP(=O)(O)OCCCO)O[C@H]1n1cnc2c(=O)[nH]c(N)nc21",
    "Ki [nM]": 19.3
  }
]

Let us examine a further case.
Given the entry CO[C@@H]1[C@H](OP(=O)(O)OCCCO)[C@@H](COP(=O)(O)OCC(CNCc2c[nH]c3c(N)ncnc23)COP(=O)(O)OCCCO)O[C@H]1n1cnc2c(=O)[nH]c(N)nc21 (mixture of isomers) , report its measured Ki.
26.8
